Each recorded value in this set is attributed to patent US5656726A.

study-target: recombinant human urokinase receptor (truncated, soluble; suPAR) (Homo sapiens, UniProt Q03405)
Construct: expressed as a truncated, soluble molecule as described previously for mouse L-cells (Masucci et al., J Biol Chem (1991) 266:8655); made in house
Sequence (Q03405 23-299 limits assumed): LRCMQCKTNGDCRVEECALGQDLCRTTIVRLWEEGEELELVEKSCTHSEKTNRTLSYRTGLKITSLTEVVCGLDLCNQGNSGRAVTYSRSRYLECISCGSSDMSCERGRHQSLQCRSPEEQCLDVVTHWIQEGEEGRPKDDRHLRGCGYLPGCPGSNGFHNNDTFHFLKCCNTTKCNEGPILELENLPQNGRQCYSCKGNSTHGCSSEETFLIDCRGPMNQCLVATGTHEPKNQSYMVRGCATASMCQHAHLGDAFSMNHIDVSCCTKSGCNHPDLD
assay-notes: 125I-ATF competition binding on immobilized soluble recombinant human urokinase receptor
conditions: synthesized peptide; assay performed at 100 pM ATF, 0.3 μg/mL suPAR in 200 μL (starred values); read-out: Affinity
Peptide text beside a SMILES is read from it.
# Kd per record follows
Answer format: numeric, µM implied, no suffix.

CC(C)C[C@H](NC(=O)[C@H](CO)NC(=O)[C@H](CO)NC(=O)[C@H](Cc1ccc(O)cc1)NC(=O)[C@@H](NC(=O)[C@H](Cc1c[nH]cn1)NC(=O)[C@H](CCC(=O)O)NC(=O)[C@H](C)N)[C@@H](C)O)C(=O)N[C@@H](Cc1c[nH]c2ccccc12)C(=O)N[C@@H](CC(=O)O)C(=O)N[C@H](C(=O)N[C@@H](Cc1ccc(O)cc1)C(=O)N[C@@H](CO)C(=O)N1CCC[C@H]1C(=O)N[C@@H](CC(C)C)C(=O)N[C@@H](C)C(=O)N[C@@H](Cc1ccccc1)C(N)=O)[C@@H](C)O (H-AEHTYSSLWDTYSPLAF-NH2) ... 0.35

What Kd value was documented for this molecule, CC[C@H](C)[C@H](NC(=O)[C@H](CCC(=O)O)NC(=O)[C@H](C)N)C(=O)N[C@@H](CC(C)C)C(=O)N[C@@H](CC(N)=O)C(=O)N[C@@H](Cc1ccccc1)C(=O)N1CCC[C@H]1C(=O)N[C@@H](CC(C)C)C(=O)N[C@@H](Cc1c[nH]c2ccccc12)C(=O)N[C@@H](Cc1c[nH]cn1)C(=O)N[C@@H](CCC(=O)O)C(=O)N1CCC[C@H]1C(=O)N[C@@H](CC(C)C)C(=O)N[C@@H](Cc1c[nH]c2ccccc12)C(=O)N[C@@H](CO)C(=O)N[C@H](C(=O)N[C@@H](CCC(=O)O)C(N)=O)[C@@H](C)O (H-AEILNFPLWHEPLWSTE-NH2) ?
15

====

study-target: recombinant human urokinase receptor (truncated, soluble; suPAR) (Homo sapiens)
Construct: expressed as a truncated, soluble molecule as described previously for mouse L-cells (Masucci et al., J Biol Chem (1991) 266:8655); made in house
assay-notes: 125I-ATF competition binding on immobilized soluble recombinant human urokinase receptor
conditions: synthesized peptide; assay performed at 100 pM ATF, 0.3 μg/mL suPAR in 200 μL (starred values); read-out: Affinity
Peptide text beside a SMILES is read from it.
# pKd per record follows
Hey, just a heads up that pKd is the negative log base 10 of the concentration in molar.

See these solved cases before continuing.
CSCC[C@H](NC(=O)[C@H](Cc1c[nH]c2ccccc12)NC(=O)[C@H](CC(C)C)NC(=O)[C@H](CC(=O)O)NC(=O)[C@H](CC(C)C)NC(=O)[C@H](CCC(=O)O)NC(=O)[C@H](C)N)C(=O)N[C@@H](CCCNC(=N)N)C(=O)N[C@@H](Cc1c[nH]cn1)C(=O)N[C@@H](Cc1ccc(O)cc1)C(=O)N1CCC[C@H]1C(=O)N[C@@H](CC(C)C)C(=O)N[C@@H](CO)C(=O)N[C@@H](Cc1ccccc1)C(=O)N[C@@H](CO)C(=O)N[C@@H](CC(N)=O)C(=O)N[C@@H](CCCNC(=N)N)C(N)=O (H-AELDLWMRHYPLSFSNR-NH2) ... 6.10
CC[C@H](C)[C@H](NC(=O)[C@H](CCC(=O)O)NC(=O)[C@H](C)N)C(=O)N[C@@H](CO)C(=O)N[C@@H](Cc1ccccc1)C(=O)N[C@@H](CO)C(=O)N[C@@H](CCC(=O)O)C(=O)N[C@@H](CC(C)C)C(=O)N[C@@H](CCSC)C(=O)N[C@@H](Cc1c[nH]c2ccccc12)C(=O)N[C@@H](CC(C)C)C(=O)N[C@@H](CCCNC(=N)N)C(=O)N[C@@H](CO)C(=O)N[C@H](C(=O)N1CCC[C@H]1C(=O)N[C@@H](C)C(=O)N[C@@H](Cc1ccccc1)C(N)=O)[C@@H](C)O (H-AEISFSELMWLRSTPAF-NH2) ... 5.22
CC[C@H](C)[C@H](NC(=O)[C@H](Cc1c[nH]c2ccccc12)NC(=O)[C@H](CC(C)C)NC(=O)[C@H](CC(=O)O)NC(=O)[C@H](C)NC(=O)[C@H](CCC(=O)O)NC(=O)[C@H](CO)NC(=O)[C@H](CC(C)C)NC(=O)[C@H](CCC(=O)O)NC(=O)[C@H](C)N)C(=O)N[C@H](C(=O)N[C@@H](Cc1c[nH]c2ccccc12)C(=O)N[C@@H](Cc1ccccc1)C(=O)NCC(=O)N[C@@H](CCSC)C(=O)NCC(=O)N[C@@H](CO)C(N)=O)[C@@H](C)O (H-AELSEADLWITWFGMGS-NH2) ... 4.70

Now turn to the next compound.
What pKd value was documented for this compound, CC[C@H](C)[C@H](NC(=O)[C@H](Cc1c[nH]cn1)NC(=O)[C@H](CCCCN)NC(=O)[C@H](CC(=O)O)NC(=O)[C@H](Cc1c[nH]cn1)NC(=O)[C@H](Cc1c[nH]c2ccccc12)NC(=O)[C@H](CC(C)C)NC(=O)[C@H](CC(=O)O)NC(=O)[C@H](CCSC)NC(=O)[C@H](Cc1ccccc1)NC(=O)[C@H](CC(C)C)NC(=O)[C@@H](NC(=O)[C@H](CCC(=O)O)NC(=O)[C@H](C)N)[C@@H](C)O)C(=O)N[C@@H](CC(C)C)C(=O)N[C@@H](CC(C)C)C(=O)N[C@H](C(N)=O)[C@@H](C)O (H-AETLFMDLWHDKHILLT-NH2) ?
5.15

====

study-target: recombinant human urokinase receptor (truncated, soluble; suPAR) (Homo sapiens, UniProt Q03405)
Construct: expressed as a truncated, soluble molecule as described previously for mouse L-cells (Masucci et al., J Biol Chem (1991) 266:8655); made in house
assay-notes: 125I-ATF competition binding on immobilized soluble recombinant human urokinase receptor
conditions: synthesized peptide; assay performed at 100 pM ATF, 0.3 μg/mL suPAR in 200 μL (starred values); read-out: Affinity
Peptide text beside a SMILES is read from it.
reported-endpoint: pKd
Hey, just a heads up that pKd is the negative log base 10 of the concentration in molar.

What pKd value was documented for this compound, CSCC[C@H](NC(=O)[C@@H]1CCCN1C(=O)[C@H](CCC(=O)O)NC(=O)[C@H](C)N)C(=O)N1CCC[C@H]1C(=O)N[C@@H](Cc1c[nH]cn1)C(=O)N[C@@H](CO)C(=O)N[C@@H](CC(C)C)C(=O)N[C@@H](CC(N)=O)C(=O)N[C@@H](Cc1ccccc1)C(=O)N[C@@H](CO)C(=O)N[C@@H](CCC(N)=O)C(=O)N[C@@H](Cc1ccc(O)cc1)C(=O)N[C@@H](CC(C)C)C(=O)N[C@@H](Cc1c[nH]c2ccccc12)C(=O)N[C@@H](Cc1ccc(O)cc1)C(=O)N[C@H](C(N)=O)[C@@H](C)O (H-AEPMPHSLNFSQYLWYT-NH2) ?
7.82

====

study-target: recombinant human urokinase receptor (truncated, soluble; suPAR) (Homo sapiens)
Construct: expressed as a truncated, soluble molecule as described previously for mouse L-cells (Masucci et al., J Biol Chem (1991) 266:8655); made in house
assay-notes: 125I-ATF competition binding on immobilized soluble recombinant human urokinase receptor
conditions: synthesized peptide; assay performed at 100 pM ATF, 0.3 μg/mL suPAR in 200 μL (starred values); read-out: Affinity
Peptide text beside a SMILES is read from it.
reported-endpoint: Kd (µM)
Answer format: numeric, µM implied, no suffix.

What Kd value was documented for this molecule, CC[C@H](C)[C@H](NC(=O)[C@H](CCC(=O)O)NC(=O)[C@H](C)N)C(=O)N[C@@H](CCCCN)C(=O)N[C@H](C(=O)N[C@@H](CC(=O)O)C(=O)N[C@@H](CCC(=O)O)C(=O)N[C@@H](CCCCN)C(=O)N[C@@H](CCSC)C(=O)NCC(=O)N[C@@H](CC(C)C)C(=O)N[C@@H](Cc1c[nH]c2ccccc12)C(=O)N[C@@H](CC(=O)O)C(=O)N[C@@H](CC(C)C)C(=O)N[C@@H](Cc1ccc(O)cc1)C(=O)N[C@@H](CO)C(=O)N[C@@H](CCSC)C(N)=O)[C@@H](C)O (H-AEIKTDEKMGLWDLYSM-NH2) ?
25

====

study-target: recombinant human urokinase receptor (truncated, soluble; suPAR) (Homo sapiens)
Construct: expressed as a truncated, soluble molecule as described previously for mouse L-cells (Masucci et al., J Biol Chem (1991) 266:8655); made in house
assay-notes: 125I-ATF competition binding on immobilized soluble recombinant human urokinase receptor
conditions: synthesized peptide; corrected to 100 pM ATF, 0.3 μg/mL suPAR conditions, corrections about 3 × from previous assay conditions; read-out: Affinity
Peptide text beside a SMILES is read from it.
# Kd per record follows
Answer format: numeric, µM implied, no suffix.

CC[C@H](C)[C@H](NC(=O)[C@H](Cc1c[nH]c2ccccc12)NC(=O)[C@H](CCC(=O)O)NC(=O)[C@H](C)N)C(=O)N[C@H](C(=O)N[C@@H](CO)C(=O)N[C@@H](CO)C(=O)N1CCC[C@H]1C(=O)N1CCC[C@H]1C(=O)N[C@@H](CC(C)C)C(=O)N[C@H](C(=O)N[C@@H](CCC(N)=O)C(=O)N[C@@H](Cc1ccc(O)cc1)C(=O)N[C@@H](CC(C)C)C(=O)N[C@@H](Cc1c[nH]c2ccccc12)C(=O)NCC(=O)N[C@@H](Cc1ccccc1)C(N)=O)[C@@H](C)O)[C@@H](C)O (H-AEWITSSPPLTQYLWGF-NH2) ... 10

What Kd value was documented for this molecule, CC(C)C[C@H](NC(=O)[C@H](CCCNC(=N)N)NC(=O)[C@H](CC(C)C)NC(=O)[C@@H]1CCCN1C(=O)[C@H](Cc1ccccc1)NC(=O)[C@H](CCC(N)=O)NC(=O)[C@H](Cc1ccc(O)cc1)NC(=O)[C@H](CC(C)C)NC(=O)[C@H](CCC(N)=O)NC(=O)[C@H](Cc1c[nH]c2ccccc12)NC(=O)[C@H](CC(C)C)NC(=O)[C@@H](NC(=O)[C@@H]1CCCN1C(=O)[C@H](CCC(=O)O)NC(=O)[C@H](C)N)[C@@H](C)O)C(=O)N[C@@H](CO)C(=O)NCC(N)=O (H-AEPTLWQLYQFPLRLSG-NH2) ?
5
